test system: MDA-MB-435; assay: NCI tumour cell line growth inhibition, 48 h
Active and inactive are the calls of the source. Rule as the data show it: active = GI50 up to about 1.1 µM and inactive = higher.
quantityKind: GI50

Some molecules with known GI50 results, for comparison:
molecule	testTarget	GI50
COc1ccc2cc(/C=N\NC(=O)Nc3cccc4ccccc34)ccc2c1	MDA-MB-435	50.6 µM (inactive)
Cc1ccc(C2(c3ccc(F)cc3)OC(=O)c3ccccc32)c(O)c1 (stereo not given)	MDA-MB-435	12.4 µM (inactive)
COc1ccc(CC2c3cc(OC)c(OC)c(OC)c3CC[N+]2(C)C)cc1Oc1ccc(CC2c3cc4c(c(OC)c3CC[N+]2(C)C)OCO4)cc1 (stereo not given)	MDA-MB-435	> 100 µM (inactive)
Cn1c(=O)c2c(nc(Cc3ccccc3)n2CC(=O)O)n(C)c1=O	MDA-MB-435	> 100 µM (inactive)

# evaluate next
The molecule "O=C(/C=c1\oc(=O)/c(=C/C(=O)c2ccc(Cl)cc2)oc1=O)c1ccc(Cl)cc1" showed GI50 equal to > 100 µM (inactive)

====

system: CAKI-1; assay: NCI tumour cell line growth inhibition, 48 h
Activity calls are given as the source filed them. No stated cut-off is given here; in the data, active = GI50 up to about 1.1 µM and inactive = higher.
quantityKind: GI50

Solved cases (3 shown):
molecule	testTarget	dataValue
Cc1nc2c(o1)C(=O)c1ccccc1/C2=N/c1ccc(N2CCOCC2)cc1	CAKI-1	13.2 µM (inactive)
COc1cc(OC2OC(COC(=O)c3cc(O)c(O)c(O)c3)C(O)C(O)C2O)ccc1O (stereo unspecified)	CAKI-1	69.2 µM (inactive)
CCOC(=O)C(=O)Nc1ccccc1CC	CAKI-1	> 100 µM (inactive)

GI50 value, target or system CAKI-1, for C=CCOCC1C2CCC3(OCCO3)C21 (stereo unspecified) : 30.4 µM (inactive)

The reported CAKI-1 GI50 of O=C(O)CCC1CCc2cccc(OCC(=O)O)c2C1=O (stereo unspecified) is > 100 µM (inactive)

// returns GI50 for CC(C)=CCc1ccc2[nH]c3c(c2c1)C(=O)C(=O)C(C)=C3C(O)C(C)O (stereo unspecified) with CAKI-1; value = 4.38 µM (inactive)

====

Known GI50 of a selection of compounds
system: Malme-3M; experiment: NCI tumour cell line growth inhibition, 48 h
The source made the active and inactive calls. No stated cut-off is given here; in the data, active = GI50 up to about 1.1 µM and inactive = higher.

Examples from the recorded data:
compound	GI50
Ic1cccc(/C=C/CN2CCN(CCOC(c3ccccc3)c3ccccc3)CC2)c1	18.9 µM (inactive)
CC1=C2O[C@]3(O)C=C2C(=C(O)C1=O)[C@@H]1O[C@H](CC[C@H](C)/C=C(\C)C[C@@H](C)C[C@@H]3C)[C@H](C)[C@H](O)[C@H]1C [KENDOMYCIN]	0.194 µM (active)
O=C(/C=c1\oc(=O)/c(=C/C(=O)c2ccc(Cl)cc2)oc1=O)c1ccc(Cl)cc1	51.3 µM (inactive)
CC(C)(C)C1=CC(C)(n2[nH]c(=O)n(-c3ccccc3)c2=O)C=C(C(C)(C)C)C1=O	> 100 µM (inactive)

Query O=CC1C(Cl)=Nc2nc3ccccc3n2C1c1ccc([N+](=O)[O-])cc1 (stereo not drawn) on Malme-3M; GI50 returned: 8.13 µM (inactive)

CCc1cccc(CC)c1NC(=O)CC1SC(N)=NC1=O (stereo not drawn) tested on Malme-3M gave GI50: > 100 µM (inactive)

The value of GI50 recorded for "C/C=C(/C)C(=O)O[C@H]1C(C)=C[C@]23C(=O)[C@@H](C=C(COC(C)=O)[C@@H](O)[C@]12O)[C@H]1[C@@H](C[C@H]3C)[C@@]1(C)OC(=O)/C(C)=C\C" when tested on Malme-3M reads 0.111 µM (active)

CCN(CC)c1ccc(C2Nc3ccc4ccccc4c3C3=C2C(=O)CCC3)cc1 (stereo not drawn) tested on Malme-3M gave GI50: > 100 µM (inactive)

Noted GI50 for "CN(/N=C/c1ccnc2ccccc12)c1ccc([N+](=O)[O-])cc1[N+](=O)[O-]" , tested on Malme-3M: 61 µM (inactive)

GI50 on Malme-3M for "COc1cc2cc(c1Cl)N(C)C(=O)C[C@H](OC(=O)[C@H](C)N(C)C(C)=O)[C@]1(C)O[C@H]1[C@H](C)[C@@H]1C[C@@](O)(NC(=O)O1)[C@H](OC)/C=C/C=C(/C)C2" is 0.0351 µM (active)

Item "CC(=O)Oc1cccc2c(/C=N/NC(N)=S)ncc(C)c12" ; assay system Malme-3M; GI50 reported as 1.26 µM (inactive)

Observed GI50, Malme-3M, "CC1=C(C(=O)Nc2cccc(Cl)c2)C(c2ccc([N+](=O)[O-])cc2)C(C(=O)Nc2cccc(Cl)c2)=C(C)N1" : 21 µM (inactive)

Observed GI50 on Malme-3M, entry COc1nc(NC2OCC(OC(C)=O)C(OC(C)=O)C2OC(C)=O)c(/N=C\C=N\c2c(NC3OCC(OC(C)=O)C(OC(C)=O)C3OC(C)=O)nc(OC)n(C)c2=O)c(=O)n1C (stereo not drawn) , equals > 100 µM (inactive)

Record "CC#Cc1c(C#CC)c(OC)c2c(c1OC)C(=O)c1ccccc1C2=O" / Malme-3M, GI50 recorded as > 100 µM (inactive)

Log: Malme-3M, compound "O=C(OC1=CCN(Br)C1=O)C1=C(O)C(=O)N(Br)C1" , GI50 = 55 µM (inactive)

====

Each entry below carries its reported GI50.
tested on: NCI-H460; assay: NCI tumour cell line growth inhibition, 48 h
The source made the active and inactive calls. No stated cut-off is given here; in the data, active = GI50 up to about 1.1 µM and inactive = higher.

molecule	GI50
COc1cc(OC)c2nc(C)c3c(c2c1)OCC3	> 100 µM (inactive)

Data point: "CC(C)OP(=O)(OC(C)C)c1ccc2c(c1)OCCOCCOCCOCCO2" ; GI50 = > 100 µM (inactive)

// GI50 lookup, molecule = "COc1ccc2nc3cc([N+](=O)[O-])ccc3c(NNc3ccccc3)c2c1" , result: 11.7 µM (inactive)

Lab book: GI50 of "CCOC(=O)/C(=N/Nc1ccccc1)N1C(=S)N(C)N=C(C)C=C1S" noted as > 100 µM (inactive)

Consider COc1cccc(C2SC(=N)Nc3c2c(C)nn3C(=O)Cc2ccccc2)c1 (stereo not given) . Its measured GI50 is > 100 µM (inactive)

What the record says about "CN(/N=C/c1ccnc2ccccc12)c1ccc([N+](=O)[O-])cc1[N+](=O)[O-]" : GI50 is > 100 µM (inactive)

Measured GI50, "CCOC(=O)c1ncn(CCc2ccc(Cl)cc2)c1C" : > 100 µM (inactive)

GI50 reading for "CCN(CC)c1ccc2cc(C(N)=O)/c(=N/c3ccc(F)cc3)oc2c1" : 6.76 µM (inactive)

Record "O=S(=O)(O)c1ccc(-c2c3nc(c(-c4ccc(S(=O)(=O)O)cc4)c4ccc([nH]4)c(-c4ccc(S(=O)(=O)O)cc4)c4nc(c(-c5ccc(S(=O)(=O)O)cc5)c5ccc2[nH]5)C=C4)C=C3)cc1" . Reported GI50: > 100 µM (inactive)

The value of GI50 measured for the molecule "COc1ccc(Nc2nc3ccccc3nc2-c2cccs2)cc1" turned out to be 79.4 µM (inactive)

Field GI50 (entry "C1CC2=C(C1)C1=S(S2)SC2=C1CCC2" ) reads > 100 µM (inactive)

For "NC1=CN(CCCO)C2=N/C(=C\c3ccco3)C(=O)N12" the molecule record lists GI50 as > 100 µM (inactive)

Lab note: "O=C(/C=C/c1c(O)ccc2ccccc12)c1ccccc1" gave GI50 of > 100 µM (inactive)

// COc1cc2oc(-c3ccc(O)cc3)cc(=O)c2c(O)c1C1OC(CO)C(O)C(O)C1O (stereo not given) : GI50 value = > 100 µM (inactive)

For this molecule ( "C(/C=C/N1CCCC1)=C\c1nc(N2CCCC2)c2ccccc2n1" ), measured GI50 is 18.2 µM (inactive)

Measured GI50, CC1=NN(c2cccc(S(=O)(=O)O)c2)C2(C1)C(Cl)C(=O)N2c1nc2ccccc2s1 (stereo not given) : 9.62 µM (inactive)

For "C/C=C/C=N/N(c1nnc(-c2ccccc2)c(-c2ccccc2)n1)S(=O)(=O)c1ccc(C)cc1" the molecule record lists GI50 as 11.1 µM (inactive)

GI50 for CCCCC/C=C1\CCC(CN(C)C)C1=O (stereo not given) is 31.5 µM (inactive)

Note to self: GI50 recorded for "Cc1c(S(=O)(=O)N/C(N)=N/c2ccc(Cl)cc2)sc2ccc(Cl)cc12" was 16.9 µM (inactive)

Note to self: GI50 recorded for CC(C)[Si](OC12CCC(CC1O)CC2C(=O)O)(C(C)C)C(C)C (stereo not given) was 7.76 µM (inactive)

====

system: PC-3; assay: NCI tumour cell line growth inhibition, 48 h
The source made the active and inactive calls. Cut-off read from the data, not from the text of the source: active = GI50 up to about 1.1 µM and inactive = higher.
The categories you may choose from are yes (1) = active, no (0) = inactive

molecule	assignedCategory
C=C1C(=O)O[C@@H]2C[C@@H]3[C@]4(CC[C@]5(C)[C@@H]([C@H](C)CC/C=C(\C)C=O)CC[C@@]35C)C[C@]4(CCC(=O)OC)[C@H]12	no (0)
Brc1ccc(-c2ccc(-c3ccc(Br)s3)s2)s1	no (0)
CC(=O)c1c(O)c(C)c(O)c(Cc2c(O)c3c(c(C(=O)/C=C/c4ccccc4)c2O)OC(C)(C)C=C3)c1O [ROTTLERIN]	yes (1)

Shifting focus to the molecule that follows.
Short answer needed: outcome of this test for NC(Cc1nnn[nH]1)C(=O)O (centres undefined) ?
no (0)
